Reported values of melting point for individual entries
Observed property: melting point

molecule=COc1cc(-c2c[nH]c(-c3ccc(Cl)nc3)n2)cc(OC)c1OCc1ccc(C(F)(F)F)cn1 observed_property="melting point" reported_value="171 to 173 °C (dec.)"
molecule=COc1cc(OCc2coc(C)n2)ccc1-c1[nH]c(C2CCC(F)(F)CC2)nc1Cl observed_property="melting point" reported_value="130 to 131 °C"
molecule=COc1cc(OCc2ccncc2C(F)(F)F)ccc1-c1[nH]c(-c2ccc(F)nc2)nc1Br observed_property="melting point" reported_value="199 to 203 °C (dec.)"
molecule=COc1cc(OCc2ncc(C(F)(F)F)cc2F)ccc1-c1cnc(C2CC(F)(F)C2)[nH]1 observed_property="melting point" reported_value="70 to 75 °C"
molecule=COc1cc(OCc2cccnc2C(F)(F)F)ccc1-c1cnc(-c2ccc(F)nc2)[nH]1 observed_property="melting point" reported_value="187 to 190 °C"
molecule=COc1cc(OCc2ncccc2C#N)ccc1-c1cnc(C2CCC(F)(F)CC2)[nH]1 observed_property="melting point" reported_value="69 to 89 °C"
molecule=COc1cc(OCc2ncccc2C(F)(F)F)ccc1-c1c[nH]c(-c2ccc(Cl)nc2)n1 observed_property="melting point" reported_value="185 to 187 °C"
molecule="CCOC(C)n1c(-c2ccc(F)nc2)nc(-c2ccc(OCc3ccc(C(F)(F)F)nc3)cc2OC)c1I (stereo not shown)" observed_property="melting point" reported_value="129 to 131 °C"
molecule=COc1cc(OCc2ncc(F)cc2F)ccc1-c1cnc(-c2ccc(Cl)nc2)[nH]1 observed_property="melting point" reported_value="190 to 192 °C"
molecule=COc1cc(OCc2c(F)cc(C(F)(F)F)c[n+]2[O-])ccc1-c1cnc(-c2ccc(F)nc2)[nH]1 observed_property="melting point" reported_value="162 to 167 °C"
molecule=COc1cc(OCc2ccc(C(F)(F)F)nc2)ccc1-c1c[nH]c(C2CCCCC2)n1 observed_property="melting point" reported_value="62 to 73 °C"
molecule=COc1cc(-c2nc(C3CCCCC3)[nH]c2Cl)ccc1OCc1ccc(C(F)(F)F)cn1 observed_property="melting point" reported_value="171 to 175 °C"
molecule=COc1cc(-c2[nH]c(C3CC3)nc2Cl)ccc1OCc1ncc(C(F)(F)F)cc1F observed_property="melting point" reported_value="161 to 165 °C (dec.)"
molecule=COc1cc(OCc2ccc(C(F)(F)F)nc2)ccc1-c1[nH]c(C2CCC(F)(F)CC2)nc1C observed_property="melting point" reported_value="167 to 169 °C"
molecule="COc1cc(OC(C)c2ncc(C(F)(F)F)cc2F)ccc1-c1[nH]c(-c2ccc(F)nc2)nc1Cl (stereo not shown)" observed_property="melting point" reported_value="155 to 159 °C"
molecule=COc1cc(OCc2ccc(C(F)(F)F)cn2)ccc1-c1nc(-c2ccc(F)nc2)[nH]c1Cl observed_property="melting point" reported_value="190 to 193 °C"

====

melting point listing for selected compounds.
Observed property: melting point

item_smiles=COc1cc(OCc2ccc(Cl)cc2F)ccc1-c1cnc(-c2ccc(F)nc2)[nH]1 reported_value="178 to 180 °C"
item_smiles=COc1cc(OCc2ccc(C(F)(F)F)cc2)ccc1-c1nc(-c2ccc(Cl)cn2)[nH]c1C reported_value="170 to 173 °C"
item_smiles=COc1cc(OCc2ccc(C(F)(F)F)nc2)ccc1-c1c[nH]c(-c2ccc(Cl)nc2)n1 reported_value="218 to 220 °C"
item_smiles=COc1cc(OCc2cnccc2C(F)(F)F)ccc1-c1[nH]c(-c2ccc(F)nc2)nc1Br reported_value="132 to 162 °C"
item_smiles=COc1cc(OCc2cccc(C#N)n2)ccc1-c1cnc(C2CCC(F)(F)CC2)[nH]1 reported_value="195 to 197 °C"
item_smiles=Fc1ccc(-c2nc(F)c(-c3ccc(OCc4ncc(C(F)(F)F)cc4F)cc3)[nH]2)cn1 reported_value="222 to 227 °C"
item_smiles=COc1cc(OCc2ccc(C#N)cn2)ccc1-c1c[nH]c(-c2ccc(Cl)nc2)n1 reported_value="233 to 237 °C (dec.)"
item_smiles=CCOc1ccc(-c2nc(-c3ccc(OCc4ccc(Br)cc4F)cc3OC)c[nH]2)cn1 reported_value="181 to 184 °C"

// provenance: patent US10570117B2
